B1: Hairpin Ribozyme (parent)
chain: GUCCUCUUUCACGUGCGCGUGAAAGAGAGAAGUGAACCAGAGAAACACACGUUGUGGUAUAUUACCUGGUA

# Variants of: B1
# Method: self-cleavage, relative activity (ratio to wild type); higher = more cleavage; co-transcriptional
Observed Property: self-cleavage
Give the value as a plain number.

Qu. Quick one: self-cleavage for C10G A49C ?
Ans. 0.198

Qu. May I ask what self-cleavage has been recorded for C48A G54U ?
Ans. 0.176

Qu. Any idea what its self-cleavage is? The variant is A31G C48U
Ans. 0.257

Qu. Given the variant G25C G69C , what is its reported self-cleavage?
Ans. 0.187

Qu. Record request: self-cleavage value, item G32C A43C
Ans. 0.23

Qu. Sample G21U A47U — what was its self-cleavage?
Ans. 0.123

Qu. Need self-cleavage of U7C G13A , thanks.
Ans. 0.615

Qu. Fill in: self-cleavage of G27U U67C is ___
Ans. 0.0907

Qu. Return reported self-cleavage; argument: C16A G25C
Ans. 0.499

Qu. For U9G U55G , what is its reported self-cleavage?
Ans. 0.0748

Qu. Looking for the measured self-cleavage of C3A A24C , can you help?
Ans. 0.775

Qu. State the recorded self-cleavage for this entry: U5A U70G
Ans. 0.171

Qu. Form field: reported self-cleavage of A22U G40U
Ans. 0.115

Qu. GET /values?readout=self-cleavage&item= G29A A59C
Ans. 0.138

Qu. Which self-cleavage value belongs to A35U U63G ?
Ans. 0.147

Qu. Sample G1A G13U — what was its self-cleavage?
Ans. 0.208

Qu. # lookup: self-cleavage of A11C C38A
Ans. 0.171

Qu. Report self-cleavage for A24G U53C please.
Ans. 0.881

Qu. Request the reported self-cleavage associated with C6G A26U
Ans. 0.198

Qu. What self-cleavage value was documented for this variant, A23U C38G ?
Ans. 0.167

Qu. For A31U C48G , what is its reported self-cleavage?
Ans. 0.0916

Qu. Please report the recorded self-cleavage for G1A A36G .
Ans. 0.088

src = the RNAGym collection of RNA variant scans (doi:10.7554/elife.80360)
